System: MX-1 breast xenograft, intrarenal, nude mice, tumor weight
Assay: NCI In Vivo Anticancer Drug Screen. Data for tumor model Human Mammary Carcinoma MX-1 Xenograft (intrarenal inoculation) in NU/NU BALB/C (nude) mice
Details: endpoint: mean tumor weight change; dose: 37.5 mg/kg/injection; schedule: Q04DX003 (ip); vehicle: water; higher = larger tumour
Protocol: The antitumor activity of compounds was measured in mice bearing transplantable tumors. Survival or tumor size were measured and the results are expressed as the measurement made in the treated group (T) divided by the measurement made in the vehicle treated control group (C). The tumor model used in this assay is Human Mammary Carcinoma MX-1 Xenograft (intrarenal inoculation) in NU/NU BALB/C (nude) mice
Results filed as inconclusive are left out.
property_measured: T/C

Please review the following examples before continuing.
INSERT INTO measurements (compound, reported_result) VALUES
  ('Cc1ccc(NN=O)nc1', '-69 % of control'),
  ('O=NNc1ccc2cccnc2n1', '63 % of control'),
  ('c1ccc2c3c(c4c(c2c1)CN(C1CCCCC1)CO4)OCN(C1CCCCC1)C3', '108 % of control'),
  ('O=NNc1ccc(Cl)cn1', '4 % of control');

Ask: Need T/C, item O=C1C2C3C=CC(C2C(=O)N1CO)C1C2C(=O)N(CO)C(=O)C2C31 (configuration not stated)
Result: 110 % of control

Ask: Please do the same for CN1CCN(CN2C(=O)C3C4C=CC(C3C2=O)C2C3C(=O)N(CN5CCN(C)CC5)C(=O)C3C42)CC1 (configuration not stated) as well.
Result: 83 % of control

Ask: Please do the same for [Cl][Pt][Cl].[NH-]C(CO)C(=O)O (configuration not stated) as well.
Result: 57 % of control

====

Tested on: MX-1 breast xenograft, intrarenal, nude mice, tumor weight
Assay: NCI In Vivo Anticancer Drug Screen. Data for tumor model Human Mammary Carcinoma MX-1 Xenograft (intrarenal inoculation) in NU/NU BALB/C (nude) mice
Settings: endpoint: mean tumor weight change; dose: 300.0 mg/kg/injection; schedule: Q04DX003 (ip); vehicle: saline with Tween-80; higher = larger tumour
Records with an inconclusive call do not appear.
T/C for assorted compounds

Please review the following examples before continuing.
INSERT INTO assay_data (compound, property_measured, reported_result) VALUES
  ('CNC(=O)Oc1ccc(S(=O)(=O)c2ccc(OC(=O)NC)cc2)cc1', 'T/C', '89 % of control'),
  ('ClC1(Cl)Cc2ccccc21', 'T/C', '109 % of control'),
  ('CNc1ncn(-c2c(C)cccc2C)c(=O)n1', 'T/C', '77 % of control'),
  ('Nc1ccn(C2CC(N)C(CO)O2)c(=O)n1 (stereo not given)', 'T/C', '74 % of control'),
  ('Oc1ccc(/C=N/N=C/c2ccc(O)c(O)c2)cc1O', 'T/C', '78 % of control'),
  ('CCOC(=O)Nc1cc2c(c(N)n1)N=C(c1ccccc1)CO2', 'T/C', '80 % of control'),
  ('C=CCNC(=O)c1ccccc1SC(C)=O', 'T/C', '99 % of control'),
  ('C[n+]1c(-c2ccc(/C=N/NC(=O)c3ccc(C(=O)N/N=C/c4ccc(-c5cn6ccccc6[n+]5C)cc4)cc3)cc2)cn2ccccc21', 'T/C', '65 % of control');

Ask: Need T/C, item CSCCC(N)C(=O)O (stereo not given)
Result: 101 % of control

Ask: Please do the same for N#CCS(=O)(=O)c1cccc[n+]1[O-] as well.
Result: 67 % of control

Ask: Please do the same for CC1C(c2ccccc2)OC(N2CCOCC2)C(C)(C)CN1C (stereo not given) as well.
Result: 101 % of control

====

T/C for assorted compounds
Tested on: MX-1 breast xenograft, intrarenal, nude mice, tumor weight
Test: NCI In Vivo Anticancer Drug Screen. Data for tumor model Human Mammary Carcinoma MX-1 Xenograft (intrarenal inoculation) in NU/NU BALB/C (nude) mice
Conditions: endpoint: mean tumor weight change; dose: 1200.0 mg/kg/injection; schedule: Q04DX003 (ip); vehicle: Klucel (hydroxypropylcellulose) (HPC); higher = larger tumour
Results filed as inconclusive are left out.

INSERT INTO results (compound, reported_result) VALUES
  ('[N-]=[N+]=CC(=O)CCC(NC(=O)OCc1ccccc1)C(=O)OCc1ccccc1 (stereo not given)', '22 % of control');

Ask: Need T/C, item CCCC1(c2ccccc2)C(=O)NCNC1=O
Result: 55 % of control

Ask: Please do the same for CCOC1NC(=O)Oc2ccccc21 (stereo not given) as well.
Result: 79 % of control

Ask: Please do the same for C[C@]12CCC(=O)C(O)=C1CC[C@@H]1[C@@H]2CC[C@]2(C)C(=O)CC[C@@H]12 as well.
Result: 113 % of control

Ask: Please do the same for CCn1c(-c2ccc(OC(C)=O)cc2)c(C)c2cc(OC(C)=O)ccc21 as well.
Result: 47 % of control

====

System: MX-1 breast xenograft, intrarenal, nude mice, tumor weight
Assay: NCI In Vivo Anticancer Drug Screen. Data for tumor model Human Mammary Carcinoma MX-1 Xenograft (intrarenal inoculation) in NU/NU BALB/C (nude) mice
Settings: endpoint: mean tumor weight change; dose: 50.0 mg/kg/injection; schedule: Q04DX003 (ip); vehicle: saline; higher = larger tumour
Results filed as inconclusive are left out.
property_measured: T/C

Ask: Need T/C, item COc1cccc2c1C(CO)N1C(C#N)C3CC(C(=O)O)C(C1C2)N3C (stereo unspecified)
Result: 2 % of control

Ask: Please do the same for COc1cc(C2c3cc4c(cc3[C@@H](OC3OC5CO[C@@H](C)OC5C(O)C3O)[C@H]3COC(=O)C23)OCO4)cc(OC)c1OC (stereo partly specified) as well.
Result: 84 % of control

Ask: Please do the same for O=c1[nH]cc(F)c(=O)[nH]1 as well.
Result: 43 % of control

Ask: Please do the same for C/C(=N\NC(=O)c1ccccc1O)c1cccc(/C(C)=N/NC(=O)c2ccccc2O)n1 as well.
Result: 77 % of control

====

Tested on: MX-1 breast xenograft, intrarenal, nude mice, tumor weight
Test: NCI In Vivo Anticancer Drug Screen. Data for tumor model Human Mammary Carcinoma MX-1 Xenograft (intrarenal inoculation) in NU/NU BALB/C (nude) mice
Conditions: endpoint: mean tumor weight change; dose: 200.0 mg/kg/injection; schedule: Q01DX010 (sc); vehicle: saline; higher = larger tumour
Records with an inconclusive call do not appear.
T/C for assorted compounds

INSERT INTO assay_data (compound, reported_result) VALUES
  ('CNC=O', '10 % of control'),
  ('CNC(=O)ON(C(C)=O)C(=O)NC', '-89 % of control'),
  ('Cc1cc(SCC(=O)c2ccc(Br)cc2)cc(C)[o+]1', '71 % of control'),
  ('CCNC=O', '85 % of control'),
  ('O=C(O)CC(NC(=O)CP(=O)(O)O)C(=O)O (stereo unspecified)', '5 % of control');

Now let's try a different one.
Ask: Need T/C, item CNNCc1ccc(C(=O)NC(C)C)cc1
Result: 45 % of control

====

Test system: MX-1 breast xenograft, intrarenal, nude mice, tumor weight
Test: NCI In Vivo Anticancer Drug Screen. Data for tumor model Human Mammary Carcinoma MX-1 Xenograft (intrarenal inoculation) in NU/NU BALB/C (nude) mice
Conditions: endpoint: mean tumor weight change; dose: 300.0 mg/kg/injection; schedule: Q04DX003 (sc); vehicle: saline; higher = larger tumour
Inconclusive results are not listed.
T/C for assorted compounds

Please review the following examples before continuing.
INSERT INTO assay_data (compound, reported_result) VALUES
  ('CCCCCCCCCCCCCCCCP(=O)(OCCOCCCCCC)OCCOCCCCCC', '97 % of control'),
  ('CC(C)C(N)C(=O)Nc1nncs1 (configuration not stated)', '77 % of control'),
  ('c1ccc2c(c1)[As]=c1ccccc1=[As]2 (configuration not stated)', '99 % of control');

Now let's try a different one.
Ask: Need T/C, item OCC1OC(n2cnc3c(=S)nc[nH]c32)C(O)C1O (configuration not stated)
Result: 86 % of control

====

Tested on: MX-1 breast xenograft, intrarenal, nude mice, tumor weight
Assay: NCI In Vivo Anticancer Drug Screen. Data for tumor model Human Mammary Carcinoma MX-1 Xenograft (intrarenal inoculation) in NU/NU BALB/C (nude) mice
Conditions: endpoint: mean tumor weight change; dose: 300.0 mg/kg/injection; schedule: Q04DX003 (ip); vehicle: Klucel (hydroxypropylcellulose) (HPC); higher = larger tumour
Results filed as inconclusive are left out.
property_measured: T/C

Please review the following examples before continuing.
INSERT INTO assay_data (molecule, reported_result) VALUES
  ('N=C(N)c1ccc(N=Nc2c(O)ccc3cc(O)ccc23)cc1', '70 % of control'),
  ('O=C1CNC(=O)N1CN1CCOCC1', '89 % of control'),
  ('CCn1c(-c2ccc(OC(C)=O)cc2)c(C)c2cc(OC(C)=O)ccc21', '61 % of control'),
  ('C[C@]12CCC(=O)C(O)=C1CC[C@@H]1[C@@H]2CC[C@]2(C)C(=O)CC[C@@H]12', '96 % of control'),
  ('Oc1c(Cl)cc(Cl)cc1C=NCCSc1ccc(Cl)cc1', '95 % of control'),
  ('O=c1[nH]cnc2c1cnn2CN1CCOCC1', '65 % of control');

Now let's try a different one.
Ask: Need T/C, item CCCC1(c2ccccc2)C(=O)NCNC1=O
Result: 95 % of control
